assay: Compound cytotoxicity, XTT-based colorimetric assay; type: cell-based; conditions: human; uninfected MT2 cells, day 4, XTT; read-out: CC50
Outcome Measure: CC50 at 4 days

>>> recorded_measurement("COCCCn1nc(NS(C)(=O)=O)c2c(Cl)ccc(-n3c([C@H](Cc4cc(F)cc(F)c4)NC(=O)Cn4nc(C(F)F)c5c4C(F)(F)[C@@H]4C[C@H]54)nc4nc(C5CCC(F)(F)CC5)cc(NCCN5CCOCC5)c4c3=O)c21 (atropisomer, axis not shown; (P))")
"> 20 nM"
>>> recorded_measurement("CCc1cc(C2CCC(F)(F)CC2)nc2nc([C@H](Cc3cc(F)cc(F)c3)NC(=O)Cn3nc(C(F)(F)F)c4c3C[C@H]3C[C@@H]43)n(-c3ccc(Cl)c4c(NS(C)(=O)=O)nn(CCCOC)c34)c(=O)c12 (relative stereo)")
"> 50 nM"
>>> recorded_measurement("Cc1cc(C2(F)CCC(F)(F)CC2)nc2nc([C@H](Cc3cc(F)cc(F)c3)NC(=O)Cn3nc(C(F)F)c4c3C(F)(F)[C@@H]3C[C@H]43)n(-c3ccc(Cl)c4c(NS(C)(=O)=O)nn(CCN5C[C@H](C)OC(C)(C)C5)c34)c(=O)c12 (atropisomer, axis not shown; (P))")
"> 20 nM"
>>> recorded_measurement("CS(=O)(=O)Nc1nn(CCN2CCOC3(CC3)C2)c2c(-n3c([C@H](Cc4cc(F)cc(F)c4)NC(=O)Cn4nc(C(F)F)c5c4C(F)(F)[C@@H]4C[C@H]54)nc4nc(C5CCC(F)(F)CC5)ccc4c3=O)ccc(Cl)c12 (atropisomer, axis not shown; (P))")
"> 50 nM"

----------
The following compounds are shown together with reported CC50 at 4 days values.
assay: Compound cytotoxicity, XTT-based colorimetric assay; format: cell-based; settings: human; uninfected MT2 cells, day 4, XTT; read-out: CC50
Outcome Measure: CC50 at 4 days

>>> recorded_measurement("Cc1cc(C2CCC(F)(F)CC2)nc2nc([C@H](Cc3cc(F)cc(F)c3)NC(=O)Cn3nc(C(F)F)c4c3C(F)(F)[C@@H]3C[C@H]43)n(-c3ccc(Cl)c4c(NS(C)(=O)=O)nn(CCN5CCCC5)c34)c(=O)c12 (atropisomer, axis not shown; (P))")
"> 50 nM"
>>> recorded_measurement("Cc1cc(C2(F)CCC(F)(F)CC2)nc2nc([C@H](Cc3cc(F)cc(F)c3)NC(=O)Cn3nc(C(F)F)c4c3C(F)(F)[C@@H]3C[C@H]43)n(-c3ccc(Cl)c4c(NS(C)(=O)=O)nn(CCN5C[C@@H](C)OC(C)(C)C5)c34)c(=O)c12 (atropisomer, axis not shown; (P))")
"> 20 nM"
>>> recorded_measurement("CS(=O)(=O)Nc1nn(CCN(CCC(F)(F)F)CCC(F)(F)F)c2c(-n3c([C@H](Cc4cc(F)cc(F)c4)NC(=O)Cn4nc(C(F)F)c5c4C(F)(F)[C@@H]4C[C@H]54)nc4nc(C5CCC(F)(F)CC5)ccc4c3=O)ccc(Cl)c12 (atropisomer, axis not shown; (P))")
"> 20 nM"

----------
experiment: Compound cytotoxicity, XTT-based colorimetric assay; assay type: cell-based; details: human; uninfected MT2 cells, day 4, XTT; read-out: CC50
The following molecules are shown together with reported CC50 at 4 days values.
Outcome Measure: CC50 at 4 days

>>> recorded_measurement("COCCCn1nc(NS(C)(=O)=O)c2c(Cl)ccc(-n3c([C@H](Cc4cc(F)cc(F)c4)NC(=O)Cn4nc(C(F)F)c5c4C(F)(F)[C@@H]4C[C@H]54)nc4nc(C5CCC(F)(F)CC5)cc(NCCC5CCO5)c4c3=O)c21 (stereo partly shown) [Example 564]")
"> 20 nM"
>>> recorded_measurement("CS(=O)(=O)Nc1nn(CCN2CCC(F)(C(F)(F)F)C2)c2c(-n3c([C@H](Cc4cc(F)cc(F)c4)NC(=O)Cn4nc(C(F)F)c5c4C(F)(F)[C@@H]4C[C@H]54)nc4nc(C5CCC(F)(F)CC5)ccc4c3=O)ccc(Cl)c12 (stereo partly shown) [Example 191]")
"> 50 nM"
>>> recorded_measurement("Cc1cc(C2(F)CCC(F)(F)CC2)nc2nc([C@H](Cc3cc(F)cc(F)c3)NC(=O)Cn3nc(C(F)(F)F)c4c3C[C@@H]3C[C@H]43)n(-c3ccc(Cl)c4c(NS(C)(=O)=O)nn(CCN5C[C@H](F)C[C@H](F)C5)c34)c(=O)c12 (atropisomer, axis not shown; (P)) [Example 572]")
"> 20 nM"
>>> recorded_measurement("CC(C)[C@H]1CN(CCn2nc(NS(C)(=O)=O)c3c(Cl)ccc(-n4c([C@H](Cc5cc(F)cc(F)c5)NC(=O)Cn5nc(C6CC6)c6c5C[C@@H]5C[C@H]65)nc5nc(C6CCC(F)(F)CC6)ccc5c4=O)c32)CCO1 (atropisomer, axis not shown; (P)) [Example 434]")
"> 20 nM"

----------
The following molecules are shown together with reported CC50 at 4 days values.
experiment: Compound cytotoxicity, XTT-based colorimetric assay; type: cell-based; settings: human; uninfected MT2 cells, day 4, XTT; read-out: CC50
Outcome Measure: CC50 at 4 days

>>> recorded_measurement("CO[C@H](C)Cn1nc(NS(C)(=O)=O)c2c(Cl)ccc(-n3c([C@H](Cc4cc(F)cc(F)c4)NC(=O)Cn4nc(C(F)F)c5c4C(F)(F)[C@@H]4C[C@H]54)nc4nc(C5CCC(F)(F)CC5)cc(C)c4c3=O)c21 (atropisomer, axis not shown; (P)) [Example 77]")
"> 50 nM"
>>> recorded_measurement("C[C@@H]1CN(CCn2nc(NS(C)(=O)=O)c3c(Cl)ccc(-n4c([C@H](Cc5cc(F)cc(F)c5)NC(=O)Cn5nc(C6CC6)c6c5C[C@@H]5C[C@H]65)nc5nc(C6CCC(F)(F)CC6)cc(C(F)F)c5c4=O)c32)C[C@H](C)O1 (atropisomer, axis not shown; (P)) [Example 240]")
"> 50 nM"
>>> recorded_measurement("COCCOCCn1nc(NS(C)(=O)=O)c2c(Cl)ccc(-n3c([C@H](Cc4cc(F)cc(F)c4)NC(=O)Cn4nc(C(F)F)c5c4C(F)(F)[C@@H]4C[C@H]54)nc4nc(C5CCC(F)(F)CC5)ccc4c3=O)c21 (atropisomer, axis not shown; (P)) [Example 241]")
"> 50 nM"
>>> recorded_measurement("Cc1cc(C2(CF)CCC(F)(F)CC2)nc2nc([C@H](Cc3cc(F)cc(F)c3)NC(=O)Cn3nc(C(F)F)c4c3C(F)(F)[C@@H]3C[C@H]43)n(-c3ccc(Cl)c4c(NS(C)(=O)=O)nn(CCN5C[C@H](F)C[C@H](F)C5)c34)c(=O)c12 (atropisomer, axis not shown; (P)) [Example 556]")
"> 20 nM"

----------
The following molecules are shown together with reported CC50 at 4 days values.
test: Compound cytotoxicity, XTT-based colorimetric assay; assay type: cell-based; details: human; uninfected MT2 cells, day 4, XTT; read-out: CC50
Outcome Measure: CC50 at 4 days

>>> recorded_measurement("Cc1cc(C2(F)CCC(F)(F)CC2)nc2nc([C@H](Cc3cc(F)cc(F)c3)NC(=O)Cn3nc(C4CC4)c4c3C[C@@H]3C[C@H]43)n(-c3ccc(Cl)c4c(NS(C)(=O)=O)nn(CCN5CCOCC5(C)C)c34)c(=O)c12 (atropisomer, axis not shown; (P)) [Example 586]")
"> 20 nM"
>>> recorded_measurement("Cc1cc(C2CCC(F)(F)CC2)nc2nc([C@H](Cc3cc(F)cc(F)c3)NC(=O)Cn3nc(C(F)F)c4c3C(F)(F)[C@@H]3C[C@H]43)n(-c3ccc(Cl)c4c(NS(C)(=O)=O)nn(CCN5CC(F)(F)C5)c34)c(=O)c12 (atropisomer, axis not shown; (P)) [Example 229]")
"> 50 nM"
>>> recorded_measurement("CS(=O)(=O)Nc1nn(CCN2CCC(F)CC2)c2c(-n3c([C@H](Cc4cc(F)cc(F)c4)NC(=O)Cn4nc(C(F)F)c5c4C(F)(F)[C@@H]4C[C@H]54)nc4nc(C5CCC(F)(F)CC5)ccc4c3=O)ccc(Cl)c12 (atropisomer, axis not shown; (P)) [Example 166]")
"> 50 nM"
>>> recorded_measurement("Cc1cc(C2CCC(F)(F)CC2)nc2nc([C@H](Cc3cc(F)cc(F)c3)NC(=O)Cn3nc(C4CC4)c4c3C[C@@H]3C[C@H]43)n(-c3ccc(Cl)c4c(NS(C)(=O)=O)nn(CC(=O)NCCOC(C)C)c34)c(=O)c12 (atropisomer, axis not shown; (P)) [Example 393]")
"> 20 nM"
>>> recorded_measurement("COCCCn1nc(NS(C)(=O)=O)c2c(Cl)ccc(-n3c([C@H](Cc4cc(F)cc(F)c4)NC(=O)Cn4nc(C(F)F)c5c4C(F)(F)[C@@H]4C[C@H]54)nc4nc(C5CCC(F)(F)CC5)cc(NCCOC)c4c3=O)c21 (atropisomer, axis not shown; (P)) [Example 135]")
"> 50 nM"
>>> recorded_measurement("Cc1cc(C2CCC(F)(F)CC2)nc2nc([C@H](Cc3cc(F)cc(F)c3)NC(=O)Cn3nc(C4CC4)c4c3C[C@@H]3C[C@H]43)n(-c3ccc(Cl)c4c(NS(C)(=O)=O)nn([C@H](C)CN5CC(C)(C)OC(C)(C)C5)c34)c(=O)c12 (relative stereo) [Example 734]")
"> 20 nM"
>>> recorded_measurement("Cc1cc(C2CCC(F)(F)CC2)nc2nc([C@H](Cc3cc(F)cc(F)c3)NC(=O)Cn3nc(C(F)F)c4c3C(F)(F)[C@@H]3C[C@H]43)n(-c3ccc(Cl)c4c(NS(C)(=O)=O)nn(CCOC(C)C)c34)c(=O)c12 (atropisomer, axis not shown; (P)) [Example 59]")
"> 50 nM"
